- Assayed System: UniProtKB Q9NWZ3
- Sequence (Q9NWZ3 whole entry): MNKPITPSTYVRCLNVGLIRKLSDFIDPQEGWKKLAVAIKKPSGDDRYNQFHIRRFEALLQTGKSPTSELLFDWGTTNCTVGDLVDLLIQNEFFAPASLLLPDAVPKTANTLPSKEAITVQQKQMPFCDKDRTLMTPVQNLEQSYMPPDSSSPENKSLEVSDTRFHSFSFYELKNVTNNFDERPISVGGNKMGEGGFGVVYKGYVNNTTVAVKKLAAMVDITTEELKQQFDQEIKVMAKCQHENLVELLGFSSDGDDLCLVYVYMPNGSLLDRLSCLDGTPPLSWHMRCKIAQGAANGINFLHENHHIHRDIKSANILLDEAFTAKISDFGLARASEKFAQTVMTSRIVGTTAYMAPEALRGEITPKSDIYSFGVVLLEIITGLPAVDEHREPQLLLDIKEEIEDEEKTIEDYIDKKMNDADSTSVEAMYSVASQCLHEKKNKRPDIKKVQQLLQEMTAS
- Method Notes: RBC HotSpot Kinase Assay, IRAK4
- Assay type: biochemical
- Set-up: purchased Reaction Biology (RBC), HotSpot kinase assay
- Recorded Conditions: isolated kinase, 33P-ATP
Assign IC50 to each entry below.
# include the unit after the value

Some compounds with recorded IC50:
- Compound: "O=S1(=O)CCCCN1c1cn2c(-c3nc(N[C@H]4CNCC[C@@H]4F)c(F)cc3F)cnc2cn1 [Compound 103]"
  Result: "13 nM"
- Compound: "O=S1(=O)CCCN1c1cn2c(-c3cccc(N[C@H]4CNCC[C@@H]4F)n3)cnc2cn1 [Compound 97]"
  Result: "6 nM"
- Compound: "FC(F)(F)COc1cn2c(-c3cccc(N[C@@H]4CCCNC4)n3)cnc2cn1 [Compound 37]"
  Result: "11 nM"

Quick request: IC50 for each listed item, please.
1. CC(O)(c1cn2c(-c3nc(N[C@@H]4CCCNC4)c(F)cc3F)cnc2cn1)C(F)(F)F (single isomer, unassigned) [Compound 90]
2. c1cc(N[C@@H]2CCCNC2)nc(-c2cnc3cnccn23)c1 [Compound 69]

OUT:
1. 7 nM
2. 15 nM
